Source of measurements: patent US9540333B2

Target: His-tagged protein corresponding to amino acids 575-869 of human Tyk2 (Homo sapiens, UniProt P29597)
Construct: His-tagged protein corresponding to amino acids 575-869 of human Tyk2
Sequence (P29597 575-869): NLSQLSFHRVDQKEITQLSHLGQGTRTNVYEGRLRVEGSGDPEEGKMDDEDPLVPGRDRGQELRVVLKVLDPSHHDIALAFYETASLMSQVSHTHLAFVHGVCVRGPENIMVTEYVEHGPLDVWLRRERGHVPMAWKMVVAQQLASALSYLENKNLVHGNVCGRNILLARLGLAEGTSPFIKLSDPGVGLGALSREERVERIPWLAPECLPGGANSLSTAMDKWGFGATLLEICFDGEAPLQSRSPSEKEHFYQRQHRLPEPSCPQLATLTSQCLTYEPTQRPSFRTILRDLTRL
Test: Probe displacement assay (scintillation proximity, radiolabeled probe)
Details: 2.5 nM Tyk2 (575-869), 40 nM tritiated probe, 30 minutes at room temperature
Measured Quantity: EC50 (nM)
Numeric only. Scale: nM

## Input May I ask what EC50 has been recorded for `CNC(=O)c1cnc(NC2CCCC2)nc1Nc1ccccc1C(N)=O` ?
## Output 120

## Input So what's the measured EC50 for this one? `CNC(=O)c1cnc(Nc2ccc(F)c(F)c2)nc1Nc1ccccc1S(C)(=O)=O`
## Output 8.47

## Input EC50 for `CNC(=O)c1cnc(Nc2ccccc2)nc1Nc1ccccc1S(C)(=O)=O` ?
## Output 30

## Input Query: EC50; subject: `CNC(=O)c1cnc(Nc2ccc(F)cc2)nc1Nc1ccccc1S(C)(=O)=O`
## Output 70

## Input Report EC50 for `CNC(=O)c1cnc(Nc2ccc(-c3ccccc3)cc2)nc1Nc1ccccc1C(N)=O` please.
## Output 70

## Input # get_value(readout='EC50', item= `CNC(=O)c1cnc(Nc2ccccc2)nc1Nc1ccccc1` )
## Output 530

## Input Query (compound): `CNC(=O)c1cnc(NC2CCC2)nc1Nc1ccccc1C(N)=O` ; field requested: EC50
## Output 110

## Input Value lookup for EC50; key = `CNC(=O)c1cnc(Nc2ccc(F)cc2)nc1Nc1cccc(C(N)=O)c1`
## Output 1350
